Overview of reported relative viability across a group of compounds:
# System: NCI-H661
# ASSAY DETAILS: relative viability (nuclei count vs DMSO), 5 days (fraction); higher = more cells survive
# COND: first compound 0.000632 µM
ENDPOINT LABEL: relative viability

[[record]]
compound = "CC(=O)O[C@@]12CO[C@@H]1C[C@H](O)[C@@]1(C)C(=O)[C@H](O)C3=C(C)[C@@H](OC(=O)[C@H](O)[C@@H](NC(=O)OC(C)(C)C)c4ccccc4)C[C@@](O)([C@@H](OC(=O)c4ccccc4)[C@H]21)C3(C)C [Docetaxel] + CC(=O)Nc1cccc(-n2c(=O)n(C3CC3)c(=O)c3c(Nc4ccc(I)cc4F)n(C)c(=O)c(C)c32)c1 [Trametinib] (partner 0.02 µM)"
endpoint_label = "relative viability"
recorded_value = 0.611

[[record]]
compound = "CC(=O)O[C@@]12CO[C@@H]1C[C@H](O)[C@@]1(C)C(=O)[C@H](O)C3=C(C)[C@@H](OC(=O)[C@H](O)[C@@H](NC(=O)OC(C)(C)C)c4ccccc4)C[C@@](O)([C@@H](OC(=O)c4ccccc4)[C@H]21)C3(C)C [Docetaxel] + COc1cc2c(Oc3ccc(NC(=O)C4(C(=O)Nc5ccc(F)cc5)CC4)cc3F)ccnc2cc1OCCCN1CCOCC1 [Foretinib] (partner 0.25 µM)"
endpoint_label = "relative viability"
recorded_value = 1.02

